Test: self-splicing fitness, log relative to wild type (ln ratio); higher = more splicing; Tetrahymena group I intron in knt gene, E. coli kanamycin selection, DiMSum; sequences stand for … in CUCUCU…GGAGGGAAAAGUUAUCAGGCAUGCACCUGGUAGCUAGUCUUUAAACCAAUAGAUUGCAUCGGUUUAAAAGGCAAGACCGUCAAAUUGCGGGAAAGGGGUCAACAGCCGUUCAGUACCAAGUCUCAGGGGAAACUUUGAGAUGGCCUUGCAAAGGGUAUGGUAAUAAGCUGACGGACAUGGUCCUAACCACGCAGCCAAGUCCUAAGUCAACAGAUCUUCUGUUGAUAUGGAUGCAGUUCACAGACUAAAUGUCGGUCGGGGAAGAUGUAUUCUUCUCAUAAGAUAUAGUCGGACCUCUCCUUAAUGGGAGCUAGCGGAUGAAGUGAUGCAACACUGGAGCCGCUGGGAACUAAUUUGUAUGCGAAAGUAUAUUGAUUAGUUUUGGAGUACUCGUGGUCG;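 note: selection with 25 µg/mL kanamycin versus none on LB agar overnight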
Conditions: 30 °C
// 0 strictly below -2 in self-splicing fitness (ln); 1 otherwise

>>> print(df.to_string())
    macromolecule_sequence  group_label
 0    CCCAAGCAAUAUUACGCAUG            0
 1    GCUCAGCAAUAUUACGUGGC            0
 2    GCCAAGCAAUAUUACGGUUC            0
 3    UAUAAGCAAUAUUACGAGGA            0
 4    GAUGAGCAAUAUUACGCCUA            1
 5    ACCGAGCAAUAUUACGUGUU            0
 6    CCUGAGCAAUAUUACGGAAA            0
 7    GUAGAGCAAUAUUACGAUCU            1
 8    UAAAAGCAAUAUUACGGGAC            0
 9    GCACAGCAAUAUUACGCCUA            1
10    GAGCAGCAAUAUUACGAAUA            0
11    UGCCAGCAAUAUUACGGCAC            0
12    CCAAAGCAAUAUUACGCAUA            0
13    CACCAGCAAUAUUACGUUCC            0
14    UCAAAGCAAUAUUACGGCAA            1
15    UGCGAGCAAUAUUACGUUAG            0
16    UUCUAGCAAUAUUACGGGGG            0
17    GGCAAGCAAUAUUACGCCGU            0
18    GAGUAGCAAUAUUACGCAAC            0
19    GUCAAGCAAUAUUACGUAGG            0
20    AUCGAGCAAUAUUACGUUCG            0
21    GAUAAGCAAUAUUACGCGGA            0
22    GUCCAGCAAUAUUACGCCGG            0
23    UACCAGCAAUAUUACGGCUU            1
24    AUUAAGCAAUAUUACGGUGA            1
25    GCGUAGCAAUAUUACGCUCG            0
26    GACUAGCAAUAUUACGAUUU            1
27    CCCUAGCAAUAUUACGCGUA            0
28    CGGAAGCAAUAUUACGGAGG            1
29    GAGAAGCAAUAUUACGUCUU            0
30    GAUCAGCAAUAUUACGUAGU            1
31    AGUUAGCAAUAUUACGACGG            1
32    UCUGAGCAAUAUUACGUGAA            0
33    ACCUAGCAAUAUUACGUUGU            1
34    UCAGAGCAAUAUUACGUCAU            0
35    CUCAAGCAAUAUUACGAGAG            0
36    GCCGAGCAAUAUUACGUUCU            1
37    AACUAGCAAUAUUACGGGUC            1
38    GGAUAGCAAUAUUACGCGGA            0
39    AUCAAGCAAUAUUACGGACC            1
40    AAGCAGCAAUAUUACGACGG            0
41    ACAAAGCAAUAUUACGUGUU            0
42    AUAAAGCAAUAUUACGUUGC            0
43    UUCCAGCAAUAUUACGCAGG            0
44    AUCGAGCAAUAUUACGGUGC            0
45    UGAUAGCAAUAUUACGGGCU            0
46    AAUUAGCAAUAUUACGAACG            1
47    UCUCAGCAAUAUUACGAAUG            1
48    CCUCAGCAAUAUUACGGACA            0
49    CUCCAGCAAUAUUACGCUAA            0
50    CAAUAGCAAUAUUACGCCUU            0
51    GUGGAGCAAUAUUACGUCCU            1
52    GUAGAGCAAUAUUACGGUGC            1
53    UGAUAGCAAUAUUACGAAGA            0
54    UUUUAGCAAUAUUACGUGGA            0
55    ACGGAGCAAUAUUACGACCA            0
